Provenance of the data: paper PMC6270661

# Test system: L. major promastigotes
# Assay explanation: AlamarBlue assay, antileishmanial activity against L. major promastigotes
# Type: cell-based, Leishmania major
# Details: Leishmania major, mean of two independent experiments
# Protocol: Antileishmanial activities of the synthesized compounds were evaluated in L. major promastigotes as described before and in L. donovani promastigotes according to Hazra et al.. […] The antiprotozoal activities are presented in Table 1, Table 2 and Table 3 as inhibitory concentrations (IC50). […] Materials and methods for the biological assays have been described before by the authors. […] The protocol for the L. donovani quantitative colorimetric assay is outlined by Hazra et al.. […]
Measured metric: IC50 (µM)

As a guide, the following entries are already answered.
CC1CCC(C(C)C)C(OC(=O)/C=C/c2ccc(O)c(O)c2)C1 (stereo not drawn): 59.5
O=C(/C=C/c1ccccc1)Oc1ccc2ccccc2c1: 67
CC1(C)C2CCC1(C)C(OC(=O)C=Cc1ccc(O)c(O)c1)C2 (stereo not drawn): 45.8
Cc1ccc(C(C)C)c(OC(=O)/C=C/c2ccccc2)c1: 55
COc1ccc(/C=C/C(=O)Oc2cc(C)ccc2C(C)C)cc1O: 59.8

[1] COc1ccc(/C=C/C(=O)OC2CC(C)CCC2C(C)C)cc1O (stereo not drawn)
[2] CCCCCCCCCCCCCCCCOP(=O)([O-])OCC[N+](C)(C)C [miltefosine, reference compound]
**Q:** For 1 and 2 , which recorded IC50 is lower? Lab note: record the label of whichever item you select.
**A:** 2
(2: 36.2 µM, 1: 54.2 µM)

[P] CC1CCC(C(C)C)C(OC(=O)/C=C/c2ccccc2)C1 (stereo not drawn)
[Q] CC1(C)C2CCC1(C)[C@H](OC(=O)/C=C/c1ccc(Cl)cc1Cl)C2 (stereo partly drawn)
[R] CC(=O)Oc1ccc(/C=C/C(=O)O[C@@H]2CC3CCC2(C)C3(C)C)cc1OC(C)=O (stereo partly drawn)
**Q:** Arrange the 3 entries by IC50 so the values rise. Labels, requested order.
**A:** R, P, Q
(R: 30.7 µM, P: 53.1 µM, Q: 80.5 µM)
